# study_target: LOXL2 (Homo sapiens, UniProt Q9Y4K0)
# Sequence (Q9Y4K0 26-774): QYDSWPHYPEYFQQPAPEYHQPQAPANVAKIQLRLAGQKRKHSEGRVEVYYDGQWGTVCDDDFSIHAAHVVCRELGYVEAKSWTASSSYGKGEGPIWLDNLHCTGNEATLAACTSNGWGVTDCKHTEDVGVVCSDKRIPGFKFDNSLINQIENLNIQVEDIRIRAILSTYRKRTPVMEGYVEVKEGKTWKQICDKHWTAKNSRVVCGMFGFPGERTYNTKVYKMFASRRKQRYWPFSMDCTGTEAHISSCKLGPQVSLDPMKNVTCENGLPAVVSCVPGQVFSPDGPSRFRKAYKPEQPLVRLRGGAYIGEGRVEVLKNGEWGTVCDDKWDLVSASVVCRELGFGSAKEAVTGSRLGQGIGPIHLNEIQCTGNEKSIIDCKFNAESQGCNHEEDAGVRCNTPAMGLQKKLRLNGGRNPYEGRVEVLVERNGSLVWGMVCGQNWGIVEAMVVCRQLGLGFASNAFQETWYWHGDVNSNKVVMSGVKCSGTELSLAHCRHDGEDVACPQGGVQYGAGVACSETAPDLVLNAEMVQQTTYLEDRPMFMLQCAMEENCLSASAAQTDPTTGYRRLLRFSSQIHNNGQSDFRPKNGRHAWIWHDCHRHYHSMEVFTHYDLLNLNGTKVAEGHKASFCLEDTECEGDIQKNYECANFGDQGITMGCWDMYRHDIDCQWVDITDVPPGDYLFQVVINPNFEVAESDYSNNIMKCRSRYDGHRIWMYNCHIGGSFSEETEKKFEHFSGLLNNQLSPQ
# measurement_description: Time-dependent inhibition of LOXL2, Amplex Red oxidation assay
# Type: biochemical
# study_conditions: 0′ incubation, 37 °C
result_type: pIC50
// pIC50 here means minus log10 of the molar concentration (mol/L)

Task item: Dear colleague, please send me the reported pIC50 for NC/C(=C\F)CS(=O)(=O)c1ccccc1 [Compound 1] when you can.
Reply: 4.83

---

# study_target: Human recombinant SSAO/VAP-1 (Homo sapiens, UniProt Q16853)
# Construct: a cloned cDNA template corresponding to residues 34-763 of human SSAO/VAP-1; TEV cleavage site (N)
# Sequence (Q16853 34-763): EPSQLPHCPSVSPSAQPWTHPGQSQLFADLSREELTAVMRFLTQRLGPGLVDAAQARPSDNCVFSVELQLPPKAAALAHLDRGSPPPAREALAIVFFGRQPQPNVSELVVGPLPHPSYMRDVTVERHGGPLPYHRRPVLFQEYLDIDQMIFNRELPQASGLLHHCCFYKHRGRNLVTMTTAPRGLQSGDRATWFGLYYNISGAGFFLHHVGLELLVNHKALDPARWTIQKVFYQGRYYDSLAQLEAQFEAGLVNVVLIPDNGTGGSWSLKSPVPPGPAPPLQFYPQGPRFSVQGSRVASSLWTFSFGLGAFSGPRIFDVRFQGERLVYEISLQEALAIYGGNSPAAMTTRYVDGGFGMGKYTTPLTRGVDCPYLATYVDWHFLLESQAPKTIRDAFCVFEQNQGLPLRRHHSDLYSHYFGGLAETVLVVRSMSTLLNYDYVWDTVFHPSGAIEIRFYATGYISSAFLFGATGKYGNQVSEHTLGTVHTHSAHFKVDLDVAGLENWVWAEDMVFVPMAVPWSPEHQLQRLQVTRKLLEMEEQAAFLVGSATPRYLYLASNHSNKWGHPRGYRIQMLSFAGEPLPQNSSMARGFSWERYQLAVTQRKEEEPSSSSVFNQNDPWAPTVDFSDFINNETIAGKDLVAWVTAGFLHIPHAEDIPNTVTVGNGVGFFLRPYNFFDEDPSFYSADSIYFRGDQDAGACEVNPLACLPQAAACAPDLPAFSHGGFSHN
# measurement_description: Inhibition of human recombinant SSAO/VAP-1, fluorescent Amplex Red assay
# study_conditions: 30 min incubation at 37 °C; benzylamine 600 μM in reaction mixture
result_type: IC50

Task item: Dear colleague, please send me the reported IC50 for NC/C(=C\F)CS(=O)(=O)c1ccccc1 when you can.
Reply: > 30 µM

---

# study_target: Human MAO-B (Homo sapiens)
# Sequence (P27338 whole entry): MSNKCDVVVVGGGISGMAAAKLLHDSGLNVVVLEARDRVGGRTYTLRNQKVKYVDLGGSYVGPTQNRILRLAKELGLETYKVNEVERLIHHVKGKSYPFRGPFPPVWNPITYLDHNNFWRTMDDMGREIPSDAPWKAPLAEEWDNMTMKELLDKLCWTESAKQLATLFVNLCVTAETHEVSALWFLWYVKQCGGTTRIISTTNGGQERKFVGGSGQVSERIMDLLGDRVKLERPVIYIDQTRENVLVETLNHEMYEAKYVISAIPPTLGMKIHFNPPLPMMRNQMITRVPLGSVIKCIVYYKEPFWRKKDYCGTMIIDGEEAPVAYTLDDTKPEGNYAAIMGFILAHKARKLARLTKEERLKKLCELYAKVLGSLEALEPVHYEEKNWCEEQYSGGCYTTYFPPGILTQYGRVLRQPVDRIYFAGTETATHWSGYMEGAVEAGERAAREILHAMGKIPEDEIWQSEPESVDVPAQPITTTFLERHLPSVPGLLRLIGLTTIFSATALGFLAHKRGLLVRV
# measurement_description: Inhibition of human recombinant MAO-B
# study_conditions: substrate benzylamine 100 μM
pIC50: −log10 of the molar value.
result_type: pIC50

Task item: Dear colleague, please send me the reported pIC50 for NC/C(=C\F)CS(=O)(=O)c1ccccc1 when you can.
Reply: < 4.52

---

# study_target: LOXL2 (Homo sapiens)
# Sequence (Q9Y4K0 26-774): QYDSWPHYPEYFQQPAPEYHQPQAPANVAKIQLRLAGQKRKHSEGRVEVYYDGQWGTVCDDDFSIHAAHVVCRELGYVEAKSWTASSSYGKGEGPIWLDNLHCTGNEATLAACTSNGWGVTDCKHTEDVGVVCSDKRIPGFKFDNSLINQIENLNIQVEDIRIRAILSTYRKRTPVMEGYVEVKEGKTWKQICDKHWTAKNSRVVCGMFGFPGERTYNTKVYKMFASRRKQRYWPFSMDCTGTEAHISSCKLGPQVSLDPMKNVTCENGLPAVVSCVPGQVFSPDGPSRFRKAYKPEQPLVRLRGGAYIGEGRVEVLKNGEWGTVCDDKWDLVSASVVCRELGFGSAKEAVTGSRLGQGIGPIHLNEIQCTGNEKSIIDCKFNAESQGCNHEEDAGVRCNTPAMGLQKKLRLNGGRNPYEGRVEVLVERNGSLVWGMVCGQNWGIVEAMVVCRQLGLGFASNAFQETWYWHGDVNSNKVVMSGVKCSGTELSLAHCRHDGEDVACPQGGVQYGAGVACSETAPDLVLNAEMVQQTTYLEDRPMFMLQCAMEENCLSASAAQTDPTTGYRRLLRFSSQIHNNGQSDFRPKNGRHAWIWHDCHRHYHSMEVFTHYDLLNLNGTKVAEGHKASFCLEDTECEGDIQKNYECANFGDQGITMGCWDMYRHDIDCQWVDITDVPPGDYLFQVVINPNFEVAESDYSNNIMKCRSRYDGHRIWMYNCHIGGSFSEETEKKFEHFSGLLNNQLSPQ
# measurement_description: LOXL2 inhibition, Amplex Red oxidation assay
# Format: biochemical
# study_conditions: 30 min incubation with enzyme at 37 °C; read-out: Human recombinant LOXL2 Activity IC50
Provide the reported pIC50 of each item.
// pIC50 here means minus log10 of the molar concentration (mol/L)

Task item: Dear colleague, please send me the reported pIC50 for NC/C(=C\F)CS(=O)(=O)c1ccccc1 when you can.
Reply: 5.32

Task item: Dear colleague, please send me the reported pIC50 for N#CCCN [BAPN, β-aminopropionitrile, reference compound] when you can.
Reply: 6.40

---

# study_target: LOXL1 (Homo sapiens)
# Sequence (Q08397 96-574): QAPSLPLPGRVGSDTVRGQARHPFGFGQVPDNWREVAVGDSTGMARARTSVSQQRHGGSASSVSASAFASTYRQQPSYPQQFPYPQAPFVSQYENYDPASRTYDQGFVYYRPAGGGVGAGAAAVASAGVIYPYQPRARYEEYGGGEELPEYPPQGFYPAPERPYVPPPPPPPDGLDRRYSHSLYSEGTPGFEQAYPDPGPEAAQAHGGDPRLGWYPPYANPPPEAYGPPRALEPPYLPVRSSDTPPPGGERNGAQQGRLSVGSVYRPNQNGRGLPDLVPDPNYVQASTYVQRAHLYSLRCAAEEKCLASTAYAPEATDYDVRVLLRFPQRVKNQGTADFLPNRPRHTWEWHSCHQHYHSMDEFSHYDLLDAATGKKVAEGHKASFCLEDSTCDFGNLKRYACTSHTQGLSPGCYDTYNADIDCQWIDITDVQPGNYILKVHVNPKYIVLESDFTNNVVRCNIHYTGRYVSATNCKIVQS
# measurement_description: LOXL1 inhibition, Amplex Red oxidation assay
# Assay type: biochemical
# study_conditions: 30 min incubation with enzyme at 37 °C
Provide the reported IC50 of each item.
Only the number, expressed in µM, is required.

Task item: Dear colleague, please send me the reported IC50 for NC/C(=C\F)CS(=O)(=O)c1ccccc1 [Compound 1] when you can.
Reply: 13.2

Task item: Dear colleague, please send me the reported IC50 for N#CCCN [BAPN, β-aminopropionitrile, reference compound] when you can.
Reply: 2.5

---

# measurement_description: Solubility and stability of test item in DMSO vehicle
# Assay type: physicochemical
# study_conditions: dmso, organic solvent or mixture
result_type: solubility

Task item: Dear colleague, please send me the reported solubility for NC/C(=C\F)CS(=O)(=O)c1ccccc1 when you can.
Reply: ≥ 50 mg/mL

---

# study_target: LOXL2 (Homo sapiens)
# Sequence (Q9Y4K0 26-774): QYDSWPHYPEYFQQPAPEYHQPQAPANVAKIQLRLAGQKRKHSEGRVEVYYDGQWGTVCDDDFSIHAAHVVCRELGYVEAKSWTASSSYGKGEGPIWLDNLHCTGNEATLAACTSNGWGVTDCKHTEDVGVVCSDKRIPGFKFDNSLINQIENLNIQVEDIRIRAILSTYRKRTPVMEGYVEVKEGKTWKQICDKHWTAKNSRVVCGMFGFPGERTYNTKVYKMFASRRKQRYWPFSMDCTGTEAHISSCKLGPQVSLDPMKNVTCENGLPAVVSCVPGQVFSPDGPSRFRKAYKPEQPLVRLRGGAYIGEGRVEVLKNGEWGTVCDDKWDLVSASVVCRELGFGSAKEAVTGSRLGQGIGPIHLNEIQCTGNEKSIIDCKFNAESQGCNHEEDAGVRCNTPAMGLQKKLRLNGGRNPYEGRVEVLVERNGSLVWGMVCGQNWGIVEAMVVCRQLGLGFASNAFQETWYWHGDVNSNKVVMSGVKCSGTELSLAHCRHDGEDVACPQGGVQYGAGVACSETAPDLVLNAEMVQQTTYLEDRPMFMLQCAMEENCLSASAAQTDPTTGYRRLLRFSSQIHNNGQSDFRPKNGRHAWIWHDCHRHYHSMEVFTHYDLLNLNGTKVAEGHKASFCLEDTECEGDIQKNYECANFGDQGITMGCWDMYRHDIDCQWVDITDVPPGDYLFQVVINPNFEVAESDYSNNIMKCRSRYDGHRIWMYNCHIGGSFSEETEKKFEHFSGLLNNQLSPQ
# measurement_description: Time-dependent inhibition of LOXL2, Amplex Red oxidation assay
# Assay type: biochemical
# study_conditions: 4 h incubation, 37 °C
result_type: pIC50
// pIC50 here means minus log10 of the molar concentration (mol/L)

Task item: Dear colleague, please send me the reported pIC50 for NC/C(=C\F)CS(=O)(=O)c1ccccc1 when you can.
Reply: 6.51

---

Provide the reported IC50 of each item.
# study_target: Bovine LOX (Bos taurus, UniProt P33072)
# Sequence (P33072 170-418): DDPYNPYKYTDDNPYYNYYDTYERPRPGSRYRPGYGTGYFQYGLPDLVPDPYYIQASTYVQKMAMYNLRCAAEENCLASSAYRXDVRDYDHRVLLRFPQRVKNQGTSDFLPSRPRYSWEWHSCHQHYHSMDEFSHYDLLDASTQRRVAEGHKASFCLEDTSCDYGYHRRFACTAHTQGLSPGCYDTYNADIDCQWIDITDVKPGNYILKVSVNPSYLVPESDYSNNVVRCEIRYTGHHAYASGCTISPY
# measurement_description: LOX inhibition, hydrogen peroxide Amplex Red oxidation assay
# Type: biochemical
# study_conditions: 2 h incubation with enzyme at 37 °C
# Procedure: LOX and LOXL protein family members can be acquired as recombinant active proteins from commercial sources, or extracted from animal tissues like bovine aorta, tendons, pig skin; or prepared from cell cultures. […] The fluorescence (RFU) was read every 2.5 min for 30 min at 37 °C, excitation 544 nm and emission 590 (Optima; BMG labtech). […]

Task item: Dear colleague, please send me the reported IC50 for NC/C(=C\F)CS(=O)(=O)c1cccc(C(N)=O)c1 when you can.
Reply: < 2000 nM

Task item: Dear colleague, please send me the reported IC50 for N#Cc1ccc(S(=O)(=O)C/C(=C/F)CN)cc1 when you can.
Reply: < 5000 nM

Task item: Dear colleague, please send me the reported IC50 for NC/C(=C\F)CS(=O)(=O)c1cccc(S(=O)(=O)c2ccccc2)c1 when you can.
Reply: < 2000 nM

Task item: Dear colleague, please send me the reported IC50 for NC/C(=C\F)CS(=O)(=O)c1ccccc1Cl when you can.
Reply: < 5000 nM

Task item: Dear colleague, please send me the reported IC50 for CC(C)c1cccc(S(=O)(=O)C/C(=C/F)CN)c1 when you can.
Reply: < 2000 nM
